# Study target: Muscarinic acetylcholine receptor M2 (Homo sapiens, UniProt P08172)
# Sequence (P08172 whole entry): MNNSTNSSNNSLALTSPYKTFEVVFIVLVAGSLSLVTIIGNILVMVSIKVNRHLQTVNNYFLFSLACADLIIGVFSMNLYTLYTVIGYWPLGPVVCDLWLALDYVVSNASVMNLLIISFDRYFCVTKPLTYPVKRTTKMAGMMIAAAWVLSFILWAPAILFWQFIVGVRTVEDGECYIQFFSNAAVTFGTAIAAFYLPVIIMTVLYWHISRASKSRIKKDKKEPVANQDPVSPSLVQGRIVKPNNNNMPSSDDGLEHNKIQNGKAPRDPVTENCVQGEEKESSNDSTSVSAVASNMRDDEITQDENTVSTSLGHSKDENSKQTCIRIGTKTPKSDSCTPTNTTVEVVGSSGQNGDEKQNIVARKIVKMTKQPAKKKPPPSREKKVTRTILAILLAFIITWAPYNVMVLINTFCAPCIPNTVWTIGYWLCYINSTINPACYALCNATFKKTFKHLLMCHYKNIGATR
# Assay remarks: Displacement of [3H]-AF-DX 384 from human recombinant muscarinic 2 receptor after 60 mins by scintillation counting analysis
Property label: pKi
Here pKi is given on a logarithmic scale as minus log10 of the concentration in mol/L.

# input // returns reported pKi for input "CCS(=O)(=O)[C@]1(C)CC[C@@](CF)(c2cc(NC(=O)c3cc4c(cn3)OC(F)(F)O4)ccc2F)N=C1N"
# output 5.09

* * *

# Assay remarks: Plasma protein binding in human assessed as unbound fraction at 5 uM after 4.5 hrs by HPLC-MS/MS analysis
# Format: ADME, cell-free
Property label: fraction unbound at 4.5 h, 5 µM

# input // returns reported fraction unbound at 4.5 h, 5 µM for input "CCS(=O)(=O)[C@]1(C)CC[C@@](CF)(c2cc(NC(=O)c3cc4c(cn3)OC(F)(F)O4)ccc2F)N=C1N"
# output 0.063

* * *

# Study target: Cytochrome P450 2C19 (Homo sapiens)
# Sequence (P33261 whole entry): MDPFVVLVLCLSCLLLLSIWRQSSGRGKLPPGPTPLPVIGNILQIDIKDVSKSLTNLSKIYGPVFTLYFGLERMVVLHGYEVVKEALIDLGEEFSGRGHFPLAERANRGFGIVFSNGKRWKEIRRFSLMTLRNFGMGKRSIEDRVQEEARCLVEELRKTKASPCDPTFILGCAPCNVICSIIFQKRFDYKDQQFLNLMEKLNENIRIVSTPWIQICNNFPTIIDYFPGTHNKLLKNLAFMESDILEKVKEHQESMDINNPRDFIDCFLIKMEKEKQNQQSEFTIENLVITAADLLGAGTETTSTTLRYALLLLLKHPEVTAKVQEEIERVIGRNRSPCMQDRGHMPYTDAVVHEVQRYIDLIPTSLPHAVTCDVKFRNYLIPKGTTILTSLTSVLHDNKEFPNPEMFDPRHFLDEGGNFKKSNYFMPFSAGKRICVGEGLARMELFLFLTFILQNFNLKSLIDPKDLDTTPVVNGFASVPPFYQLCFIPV
Property label: IC50 (µM)
Please state the figure in µM; there is no need to write the unit.

# input // returns reported IC50 for input "CCS(=O)(=O)[C@]1(C)CC[C@@](CF)(c2cc(NC(=O)c3cc4c(cn3)OC(F)(F)O4)ccc2F)N=C1N"
# output 19.5

* * *

# Assay remarks: Fraction unbound in rat brain homogenate at 5 uM incubated for 5 hrs by HPLC-MS/MS analysis
# Type: ADME, tissue-based
Property label: fraction unbound at 5 h, 5 µM
Number only, please.

# input // returns reported fraction unbound at 5 h, 5 µM for input "CCS(=O)(=O)[C@]1(C)CC[C@@](CF)(c2cc(NC(=O)c3cc4c(cn3)OC(F)(F)O4)ccc2F)N=C1N"
# output 0.014

* * *

# Study target: Sodium-dependent serotonin transporter (Homo sapiens, UniProt P31645)
# Sequence (P31645 whole entry): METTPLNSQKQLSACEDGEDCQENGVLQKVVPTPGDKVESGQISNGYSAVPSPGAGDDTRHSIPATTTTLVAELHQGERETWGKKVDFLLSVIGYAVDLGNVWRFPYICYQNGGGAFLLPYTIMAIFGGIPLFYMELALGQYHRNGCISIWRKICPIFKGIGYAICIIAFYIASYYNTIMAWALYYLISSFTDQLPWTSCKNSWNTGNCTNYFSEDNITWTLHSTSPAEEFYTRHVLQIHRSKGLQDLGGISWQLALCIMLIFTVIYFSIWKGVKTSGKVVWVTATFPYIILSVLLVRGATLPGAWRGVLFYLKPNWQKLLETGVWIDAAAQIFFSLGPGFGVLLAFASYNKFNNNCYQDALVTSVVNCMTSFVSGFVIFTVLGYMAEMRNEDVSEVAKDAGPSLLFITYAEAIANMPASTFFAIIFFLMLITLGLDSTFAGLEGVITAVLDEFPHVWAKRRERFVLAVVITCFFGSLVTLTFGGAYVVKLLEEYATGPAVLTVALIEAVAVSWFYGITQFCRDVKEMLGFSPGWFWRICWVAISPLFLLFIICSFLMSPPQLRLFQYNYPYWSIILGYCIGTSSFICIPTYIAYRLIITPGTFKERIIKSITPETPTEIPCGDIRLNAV
# Assay remarks: Displacement of [3H]-imipramine from recombinant human 5-HT transporter after 60 mins by scintillation counting analysis
Property label: Ki (µM)
Please state the figure in µM; there is no need to write the unit.

# input Reported Ki for Sodium-dependent serotonin transporter (Homo sapiens, UniProt P31645), given "CCS(=O)(=O)[C@]1(C)CC[C@@](CF)(c2cc(NC(=O)c3cc4c(cn3)OC(F)(F)O4)ccc2F)N=C1N" ?
# output 1.1

* * *

# Study target: Beta-secretase 1 (Homo sapiens, UniProt P56817)
# Sequence (P56817 whole entry, the tested form may be a part): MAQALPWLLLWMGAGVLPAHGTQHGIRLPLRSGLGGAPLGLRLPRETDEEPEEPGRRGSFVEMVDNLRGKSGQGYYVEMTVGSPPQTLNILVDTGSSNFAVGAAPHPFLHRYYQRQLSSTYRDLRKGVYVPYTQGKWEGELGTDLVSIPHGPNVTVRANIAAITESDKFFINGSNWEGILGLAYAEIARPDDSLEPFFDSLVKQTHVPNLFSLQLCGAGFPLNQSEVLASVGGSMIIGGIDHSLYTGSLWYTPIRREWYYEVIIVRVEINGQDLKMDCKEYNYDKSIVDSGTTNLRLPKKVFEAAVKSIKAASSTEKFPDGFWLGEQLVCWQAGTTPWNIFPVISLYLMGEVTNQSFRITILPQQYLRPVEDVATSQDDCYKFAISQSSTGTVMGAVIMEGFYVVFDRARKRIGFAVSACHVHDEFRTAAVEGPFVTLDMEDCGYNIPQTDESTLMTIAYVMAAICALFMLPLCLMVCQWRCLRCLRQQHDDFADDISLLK
# Assay remarks: Inhibition of BACE1 (1 to 454 residues) (unknown origin) using APP harboring Swedish Lys-Met/Asn-Leu mutant-derived peptide as substrate by FRET assay
Item-by-item account of IC50
Please state the figure in nM; there is no need to write the unit.

Below are worked cases with known answers.
Input smiles	Units text	IC50
C[C@@]1(S(C)(=O)=O)CC[C@@](CF)(c2cc(NC(=O)c3cc4c(cn3)OCCCO4)ccc2F)N=C1N	nM	28
COc1cc(C(=O)Nc2ccc(F)c([C@]3(CF)CC[C@@](C)(S(C)(=O)=O)C(N)=N3)c2)ncn1	nM	9.5

Now take the following compound into account.
# input // returns reported IC50 for input "C[C@@]1(S(C)(=O)=O)CC[C@@](CF)(c2cc(NC(=O)c3cc4c(cn3)OC(F)(F)CO4)ccc2F)N=C1N"
# output 1.4
